- target: An_CBC wt (HapB/HapC/HapE core) (Aspergillus nidulans) (UniProt G5EAZ0+Q5B5Z6+Q5AYY8)
- procedureDetails: SPR
- testConditions: SPR per cited protocol (Gsaller 2016; buffer not given), CBC 3.13-200 nM, 1:1 model with mass transport; SEC: 20 mM Tris/HCl, 150 mM NaCl, 1 mM DTT, pH 7.5
observationType: pKd
Interpret pKd as the negative base-10 log of the concentration measured in mol/L.

## Input I am curious: what pKd value has been reported for GAATTGACCAATCAGAGGTAGGATG (double strand) [An_cycA 25 bp SPR duplex] ?
## Output 9.08

These entries and their values trace back to paper PMC7266990.
